# System: SEM cells
# procedureDetails: cell viability relative to DMSO control; higher = less cytotoxic
# conditionSummary: RPMI 5 mM glucose + 10% dialyzed FBS; 48 h; 0.00234 µM
reportedProperty: cell viability (%)
Answer in %, number only, no unit symbol.

Here's what some known entries look like.
{"columns": ["molecule", "targetUnderTest", "cell viability (%)"],
 "data": [
  ["C[C@@H]1CC[C@@]2(OC1)OC1CC3C4CC=C5CC(O)CCC5(C)C4CCC3(C)C1[C@@H]2C (stereo partly specified)", "SEM cells", 44.1],
  ["NCC(=O)Nc1ccc(-n2nc(C(F)(F)F)cc2-c2ccc3c(ccc4ccccc43)c2)cc1", "SEM cells", 138],
  ["Cc1cc(Cl)ccc1OCCCC(=O)NO", "SEM cells", 96.2],
  ["CC(C)(C)NC(=O)[C@H]1CC[C@H]2[C@@H]3CC[C@H]4NC(=O)\\C=C/[C@]4(C)[C@H]3CC[C@]12C", "SEM cells", 87.6],
  ["CCCCCCCCc1ccc(CCC(N)(CO)CO)cc1", "SEM cells", 116],
  ["COC1=CC=C(C=C1)C2CC(=N/N2C3=CC=C(C=C3)[S+](N)([O-])=O)\\C4=CC=CC=C4 (stereo unspecified)", "SEM cells", 74]
]}

Please respond with reported cell viability (system SEM cells) for CO[C@@H]1C(N(C)C(=O)c2ccccc2)C[C@H]2O[C@]1(C)n1c3ccccc3c3c4c(c5c6ccccc6n2c5c31)C(=O)NC4=O (stereo partly specified) .
84.1

Please respond with reported cell viability (system SEM cells) for CC(C)[C@H](CO)Nc1nc(Nc2cccc(Cl)c2)c2ncn(C(C)C)c2n1 .
107

Please respond with reported cell viability (system SEM cells) for Cc1ncc([N+](=O)[O-])n1CCO .
109

Please respond with reported cell viability (system SEM cells) for CC(C)NCC(O)c1ccc(NS(C)(=O)=O)cc1 (stereo unspecified) .
99.1

Please respond with reported cell viability (system SEM cells) for COc1cc([C@@H]2c3cc4c(cc3[C@@H](O[C@@H]3O[C@@H]5CO[C@@H](c6cccs6)O[C@H]5[C@H](O)[C@H]3O)[C@H]3COC(=O)[C@H]23)OCO4)cc(OC)c1O .
88.9

----------
# Test system: P12-Ichikawa
# procedureDetails: cell viability relative to DMSO control; higher = less cytotoxic
# conditionSummary: HPLM + 10% dialyzed FBS; 48 h; 0.0632 µM
reportedProperty: cell viability (%)
Answer in %, number only, no unit symbol.

Here's what some known entries look like.
{"columns": ["molecule", "endpointUnit", "cell viability"],
 "data": [
  ["CCNC(=O)[C@H]1O[C@@H](n2cnc3c(N)nc(NCCc4ccc(CCC(=O)O)cc4)nc32)[C@H](O)[C@@H]1O", "%", 109],
  ["COC1=CC=C(C=C1)C2CC(=N/N2C3=CC=C(C=C3)[S+](N)([O-])=O)\\C4=CC=CC=C4 (configuration not stated)", "%", 99.5],
  ["CCCCCCCCCCCCCCCCCCOP(=O)([O-])OC1CC[N+](C)(C)CC1", "%", 111],
  ["C[N+](C)([O-])CCNc1ccc(NCC[N+](C)(C)[O-])c2c1C(=O)c1c(O)ccc(O)c1C2=O", "%", 100],
  ["Clc1ccccc1CN1CCc2sccc2C1", "%", 129]
]}

Look up and state reported cell viability for COc1cc(N[S+](=O)([O-])c2ccc(N)cc2)nc(OC)n1
125

Look up and state reported cell viability for N#CC(=C(/N)Sc1ccccc1N)/C(C#N)=C(\N)Sc1ccccc1N
131

Look up and state reported cell viability for C[C@@H]1CC[C@@]2(OC1)OC1CC3C4CC=C5CC(O)CCC5(C)C4CCC3(C)C1[C@@H]2C (some centres not stated)
107

Look up and state reported cell viability for CC[C@@]1(O)C[C@H](O[C@H]2C[C@H](N(C)C)[C@H](O[C@H]3C[C@H](O)[C@H](O[C@H]4CCC(=O)[C@H](C)O4)[C@H](C)O3)[C@H](C)O2)c2c(cc3c(c2O)C(=O)c2c(O)cccc2C3=O)[C@H]1C(=O)OC
103

Look up and state reported cell viability for CC(C)(C)NC(=O)[C@@H]1CN(Cc2cccnc2)CCN1C[C@@H](O)C[C@@H](Cc1ccccc1)C(=O)N[C@H]1c2ccccc2C[C@H]1O.O=S(=O)(O)O
122

Look up and state reported cell viability for O=C1N\2CCC3=C([NH]C4=C3C=CC=C4)C2=N/C5=CC=CC=C15
129

Look up and state reported cell viability for CC(C)(C)c1cc(C(=O)O)c(NC(=O)Nc2ccc3[nH]ncc3c2)s1
91.7

----------
# System: NOMO1
# procedureDetails: cell viability relative to DMSO control; higher = less cytotoxic
# conditionSummary: HPLM + 10% dialyzed FBS; 48 h; 46.1 µM
reportedProperty: cell viability (%)
Answer in %, number only, no unit symbol.

Here's what some known entries look like.
{"columns": ["compound", "endpointUnit", "recordedNumber"],
 "data": [
  ["O=C(NNC(=O)c1ccc(CN[S+](=O)([O-])c2ccc(F)c(Cl)c2)cc1)c1ccccc1", "%", 110],
  ["COc1ccc(Nc2cc(-c3cnc(N)nc3)nc(N3CCOCC3)n2)cn1", "%", 39.6],
  ["CC[C@@]1(O)C[C@H](O[C@H]2C[C@H](N(C)C)[C@H](O[C@H]3C[C@H](O)[C@H](O[C@H]4CCC(=O)[C@H](C)O4)[C@H](C)O3)[C@H](C)O2)c2c(cc3c(c2O)C(=O)c2c(O)cccc2C3=O)[C@H]1C(=O)OC", "%", 71.9]
]}

Consider now this further compound.
Look up and state reported cell viability for CO[C@@H]1C(N(C)C(=O)c2ccccc2)C[C@H]2O[C@]1(C)n1c3ccccc3c3c4c(c5c6ccccc6n2c5c31)C(=O)NC4=O (some centres undefined)
10.2

----------
# Tested on: SEM cells
# procedureDetails: cell viability relative to DMSO control; higher = less cytotoxic
# conditionSummary: HPLM + 10% dialyzed FBS; 48 h; 0.00234 µM
compounds and their reported cell viability
Answer in %, number only, no unit symbol.

Here's what some known entries look like.
{"columns": ["smilesStructure", "endpointUnit", "cell viability"],
 "data": [
  ["CC(C)C[C@H](NC(=O)[C@H](Cc1ccccc1)NC(=O)c1cnccn1)B(O)O", "%", 88.2],
  ["CCN(CC)CCN1C(=O)\\C(=N/C2=CC=CC=C12)CC3=CC=C(OC)C=C3", "%", 67.5],
  ["CN(C)CCCNC(=O)c1ccc(-c2cc(O)c3ncccc3c2)cc1", "%", 110],
  ["C[C@@H]1C[C@H]2[C@@H]3CC\\C4=C\\C(=O)\\C=C/[C@]4(C)[C@@]3(Cl)[C@@H](O)C[C@]2(C)[C@@]1(OC(=O)C5=CC=CO5)C(=O)CCl", "%", 82.2],
  ["CN(C)CCN(Cc1ccc(Cl)cc1)c1ccccn1.Cl", "%", 80.5],
  ["Oc1cc(O)cc(/C=C/c2ccc(O)c(O)c2)c1", "%", 85.8],
  ["COC(=O)[C@@H](N)CCCNC(=N)N[N+](=O)[O-]", "%", 37.9]
]}

Look up and state reported cell viability for CCCCCCCCCCCCCCCCCCOP(=O)([O-])OC1CC[N+](C)(C)CC1
112

----------
# System: P12-Ichikawa
# procedureDetails: cell viability relative to DMSO control; higher = less cytotoxic
# conditionSummary: HPLM + 10% dialyzed FBS; 48 h; 0.0211 µM
reportedProperty: cell viability (%)
Answer in %, number only, no unit symbol.

Here's what some known entries look like.
{"columns": ["smilesStructure", "endpointUnit", "cell viability"],
 "data": [
  ["Clc1ccccc1CN1CCc2sccc2C1", "%", 130],
  ["COc1cc(N[S+](=O)([O-])c2ccc(N)cc2)nc(OC)n1", "%", 112]
]}

Look up and state reported cell viability for C#C[C@]1(O)CC[C@H]2[C@@H]3CCc4cc(OC)ccc4[C@H]3CC[C@@]21C
106

----------
molecules and their reported cell viability
# Test system: P12-Ichikawa
# procedureDetails: cell viability relative to DMSO control; higher = less cytotoxic
# conditionSummary: HPLM + 10% dialyzed FBS; 48 h; 0.19 µM
Answer in %, number only, no unit symbol.

{"columns": ["molecule", "endpointUnit", "recordedNumber"],
 "data": [
  ["CC(C)NCC(O)COc1ccc(CCOCC2CC2)cc1 (centres undefined)", "%", 126]
]}

Look up and state reported cell viability for Cc1cc(O)c2c(c1)C(=O)c1cc(O)cc(O)c1C2=O
103

Look up and state reported cell viability for COc1ccc(Nc2cc(-c3cnc(N)nc3)nc(N3CCOCC3)n2)cn1
94.9

Look up and state reported cell viability for CCN(CC)CCN1C(=O)\C(=N/C2=CC=CC=C12)CC3=CC=C(OC)C=C3
114

Look up and state reported cell viability for COC(=O)[C@@H](N)CCCNC(=N)N[N+](=O)[O-]
98.1

Look up and state reported cell viability for C[N+](C)([O-])CCNc1ccc(NCC[N+](C)(C)[O-])c2c1C(=O)c1c(O)ccc(O)c1C2=O
90.1

Look up and state reported cell viability for Cc1ccc(-c2ncn(-c3ccc(Nc4nccc(-c5cccc(N6CCOCC6)c5)n4)cc3)n2)cn1
90.7

Look up and state reported cell viability for O=c1[nH]cnc2c1ncn2[C@H]1CC[C@@H](CO)O1
105

Look up and state reported cell viability for CC(C)[C@H](CO)Nc1nc(Nc2cccc(Cl)c2)c2ncn(C(C)C)c2n1
112
